assay: Long-term stability in spiked pooled human plasma
settings: validation standard 2xLLOV
Field: Long-term stability, 6 weeks, 4°C, without daylight Accuracy [%]. Provide a value for each of the molecules that follow.
Numbers only, in %.

molecule: Cc1ccc(Nc2nccc(N(C)c3ccc4c(C)n(C)nc4c3)n2)cc1S(N)(=O)=O [Pazopanib]
measured number: 96.5

molecule: Cc1ccc(C(=O)Nc2ccc(CN3CCN(C)CC3)c(C(F)(F)F)c2)cc1C#Cc1cnc2cccnn12 [Ponatinib]
measured number: 91.7

Report Long-term stability, 6 weeks, 4°C, without daylight Accuracy [%] for each item below.
1. Cc1cc(Nc2ncc(Cl)c(Nc3ccccc3S(=O)(=O)C(C)C)n2)c(OC(C)C)cc1C1CCNCC1 [Ceritinib]
2. CCOc1cc2ncc(C#N)c(Nc3ccc(OCc4ccccn4)c(Cl)c3)c2cc1NC(=O)/C=C/CN(C)C [Neratinib]
3. C=CC(=O)Nc1cc(Nc2nccc(-c3cn(C)c4ccccc34)n2)c(OC)cc1N(C)CCN(C)C [Osimertinib]
4. CNC(=O)c1ccccc1Sc1ccc2c(/C=C/c3ccccn3)n[nH]c2c1 [Axitinib]
5. Cn1cnc2c(F)c(Nc3ccc(Br)cc3F)c(C(=O)NOCCO)cc21 [Binimetinib]
6. COc1cc2ncnc(Nc3ccc(F)c(Cl)c3)c2cc1NC(=O)/C=C/CN1CCCCC1 [Dacomitinib]

**A:**
77.8
7.4
10.5
66.5
95.3
62.3
